# maps each entry to its pest or weed control at 100 ppm
System: cattle ticks (Rhipicephalus microplus) strain Parkhurst, SP-resistant
protocol: Rhipicephalus (Boophilus) microplus dip test
Type: in vivo
condition.summary: 168 h, application rate 100 ppm, egg deposition after 7 days, read-out: activity (efficacy: infertile eggs)
Note: unit % is implicit; provide only the numeric part.

Worked examples, 5 compounds total:
| compound | target.desc | pest or weed control at 100 ppm, % |
| --- | --- | --- |
| Cc1nc([C@H](C)NC(=O)c2cc(C(F)(F)F)cc(C(F)(F)F)c2)n(-c2ccc(C(=O)N3C[C@@H](C)O[C@@H](C)C3)cn2)n1 | cattle ticks (Rhipicephalus microplus) strain Parkhurst, SP-resistant | 80 |
| C[C@@H]1CN(C(=O)c2ccc(-n3ncnc3[C@H](C)NC(=O)c3cc(OC(F)(F)F)cc(C4CC4)c3)nc2)C[C@H](C)O1 | cattle ticks (Rhipicephalus microplus) strain Parkhurst, SP-resistant | 100 |
| Cc1nc([C@H](C)NC(=O)c2cc(C(F)(F)F)cc(C(F)(F)F)c2)n(-c2ccc(C(=O)N3CCOCC3)cn2)n1 | cattle ticks (Rhipicephalus microplus) strain Parkhurst, SP-resistant | 100 |
| Cc1nc([C@H](C)NC(=O)c2cc(C(F)(F)F)cc(C(F)(F)F)c2)n(-c2ccc(C(=O)N3C[C@@H](C)O[C@H](C)C3)cn2)n1 | cattle ticks (Rhipicephalus microplus) strain Parkhurst, SP-resistant | 100 |
| COC1CCCN(C(=O)c2ccc(-n3ncnc3[C@H](C)NC(=O)c3cc(C(F)(F)F)cc(C(F)(F)F)c3)nc2)C1 (some centres unmarked) | cattle ticks (Rhipicephalus microplus) strain Parkhurst, SP-resistant | 80 |

Recorded pest or weed control at 100 ppm for C[C@H](NC(=O)c1cc(C(F)(F)F)cc(C(F)(F)F)c1)c1ncnn1-c1ccc(C(=O)N2CCOCC2)cn1 , please?
100

Could you do the same for C[C@H](NC(=O)c1cc(Cl)cc(C(F)(F)F)c1)c1ncnn1-c1ccc(C(=O)N2CCOCC2)cn1 , please?
80

Could you do the same for C[C@@H]1CN(C(=O)c2ccc(-n3ncnc3[C@H](C)NC(=O)c3cc(C(F)(F)F)cc(C(F)(F)F)c3)nc2)C[C@H](C)O1 , please?
100

---

System: larvae of the banded cucumber beetle (Diabrotica balteata)
protocol: Diabrotica balteata spray test
Assay type: in vivo
condition.summary: 168 h, application rate 100 g/ha (=32 μg/well), after 7 days, wheat seeds, read-out: activity (efficacy: seedlings grown)
measured.parameter: pest or weed control at 32 µg/disc, 100 g/ha (%)
Note: unit % is implicit; provide only the numeric part.

| molecule | unit | experimental.value |
| --- | --- | --- |
| Cc1nc([C@H](C)NC(=O)c2cc(C(F)(F)F)cc(C(F)(F)F)c2)n(-c2ccc(C(=O)N3C[C@@H](C)O[C@@H](C)C3)nn2)n1 [Example I-139] | % | 100 |
| CC(NC(=O)c1cc(Cl)cc(OC(F)(F)F)c1)c1nc(C(F)F)nn1-c1ccc(C(=O)N2CCOCC2)cn1 (stereo not drawn) [Example I-59] | % | 80 |
| C[C@H](NC(=O)c1cc(Cl)cc(C(F)(F)F)c1)c1ncnn1-c1ccc(C(=O)N2CC3CC(C2)O3)cn1 [Example I-41] | % | 100 |
| C[C@H](NC(=O)c1cc(Cl)cc(C(F)(F)F)c1)c1ncnn1-c1ccc(N2CCOCC2)cn1 [Example I-43] | % | 100 |
| C[C@H](NC(=O)c1cc(Cl)cc(C(F)(F)F)c1)c1ncnn1-c1ccc(C(=O)N2CCS(=O)(=O)CC2)cn1 [Example I-35] | % | 100 |

Here's the next entry for you.
Recorded pest or weed control at 32 µg/disc, 100 g/ha for Cc1nc([C@H](C)NC(=O)c2cc(C(F)(F)F)cc(C(F)(F)F)c2)n(-c2cnc(C(=O)N3C[C@@H](C)O[C@@H](C)C3)cn2)n1 [Example I-138] , please?
100

---

System: larvae of the banded cucumber beetle (Diabrotica balteata)
protocol: Diabrotica balteata spray test
Assay type: in vivo
condition.summary: 168 h, application rate 100 g/ha (=32 μg/well), after 7 days, wheat seeds, read-out: activity (efficacy: seedlings grown)
# maps each entry to its pest or weed control at 32 µg/disc, 100 g/ha
Note: unit % is implicit; provide only the numeric part.

| compound | unit | experimental.value |
| --- | --- | --- |
| Cc1nc([C@H](C)NC(=O)c2cc(OC(F)(F)F)cc(C3CC3)c2)n(-c2ccc(C(=O)N3C[C@@H](C)O[C@@H](C)C3)cn2)n1 [Example I-115] | % | 80 |
| C[C@@H]1CN(C(=O)c2ccc(-n3ncnc3[C@H](C)NC(=O)c3cc(C(F)(F)F)cc(C(F)(F)F)c3)nc2)C[C@@H](C)O1 [Example I-46] | % | 100 |
| COC1CN(C(=O)c2ccc(-n3ncnc3[C@H](C)NC(=O)c3cc(C(F)(F)F)cc(C(F)(F)F)c3)nc2)C1 [Example I-15] | % | 80 |
| C[C@H](NC(=O)c1cc(Cl)cc(C(F)(F)F)c1)c1ncnn1-c1ccc(S(=O)(=O)N2CCOCC2)cn1 [Example I-123] | % | 80 |
| C[C@H](NC(=O)c1cc(Br)cc(Br)c1)c1ncnn1-c1ccc(N2CCOCC2)cn1 [Example I-103] | % | 100 |

Here's the next entry for you.
larvae of the banded cucumber beetle (Diabrotica balteata) / pest or weed control at 32 µg/disc, 100 g/ha / C[C@@H]1CN(C(=O)c2ccc(-n3ncnc3[C@H](C)NC(=O)c3cc(C(F)(F)F)cc(C(F)(F)F)c3)nc2)C[C@H](C)O1 [Example I-50] : value?
100

---

Test system: larvae of the southern green stink bug (Nezara viridula)
protocol: Nezara viridula spray test
Format: in vivo
condition.summary: 96 h, application rate 500 g/ha, after 4 days, barley plants, read-out: activity (mortality)
# maps each entry to its mortality at 500 g/ha
Note: unit % is implicit; provide only the numeric part.

| compound | mortality at 500 g/ha [%] |
| --- | --- |
| C[C@H](NC(=O)c1cc(Cl)cc(S(C)(=O)=O)c1)c1ncnn1-c1ccc(C(=O)N2C[C@H](C)O[C@@H](C)C2)cn1 [Example I-122] | 100 |

Recorded mortality at 500 g/ha for Cc1nc([C@H](C)NC(=O)c2cc(C(F)(F)F)cc(C(F)(F)F)c2)n(-c2ccc(C(=O)N3CCS(=O)(=O)CC3)cn2)n1 [Example I-76] , please?
100

Could you do the same for C[C@@H]1CN(C(=O)c2ccc(-n3ncnc3[C@H](C)NC(=O)c3cc(Cl)cc(S(C)(=O)=O)c3)nc2)C[C@@H](C)O1 [Example I-121] , please?
100

Could you do the same for CCc1nc([C@H](C)NC(=O)c2cc(C(F)(F)F)cc(C(F)(F)F)c2)n(-c2ccc(C(=O)N3CCOCC3)cn2)n1 [Example I-131] , please?
100

Could you do the same for CCc1nc([C@H](C)NC(=O)c2cc(C(F)(F)F)cc(C(F)(F)F)c2)n(-c2ccc(C(=O)N3C[C@@H](C)O[C@@H](C)C3)cn2)n1 [Example I-130] , please?
100

Could you do the same for C[C@H](NC(=O)c1cc(C(F)(F)F)cc(C(F)(F)F)c1)c1ncnn1-c1ccc(C(=O)N2CCOCC2)cn1 [Example I-2] , please?
100

Could you do the same for C[C@@H]1CN(C(=O)c2cnc(-n3ncnc3[C@H](C)NC(=O)c3cc(OC(F)(F)F)cc(C4CC4)c3)cn2)C[C@H](C)O1 [Example I-141] , please?
100

Could you do the same for C[C@H](NC(=O)c1cc(Cl)cc(S(=O)(=O)C2CC2)c1)c1nc(C2CC2)nn1-c1ccc(C(=O)N2CCOCC2)cn1 [Example I-90] , please?
100

---

System: Rhipicephalus (Boophilus) microplus larvae (strain Parkhurst, resistant against synthetic pyrethroids)
protocol: Rhipicephalus (Boophilus) microplus in-vitro contact test, larval cattle tick
Assay type: in vivo
condition.summary: application rate 1 μg/cm^2 (=100 g/ha), after 48 hours, read-out: activity (efficacy: larvae dead or moribund)
measured.parameter: pest or weed control at 1 µg/cm2, 100 g/ha (%)
Note: unit % is implicit; provide only the numeric part.

Worked examples, 6 compounds total:
| compound | unit | experimental.value |
| --- | --- | --- |
| Cc1nc([C@H](C)NC(=O)c2cc(Cl)cc(C(F)(F)F)c2)n(-c2ccc(C(=O)N3CC(C)OC(C)C3)cn2)n1 (stereo partly shown) | % | 100 |
| C[C@H](NC(=O)c1cc(Cl)cc(C(F)(F)F)c1)c1ncnn1-c1ccc(C(=O)N2CCSCC2)cn1 | % | 100 |
| CON(C)C(=O)c1ccc(-n2ncnc2[C@H](C)NC(=O)c2cc(C(F)(F)F)cc(C(F)(F)F)c2)nc1 | % | 100 |
| C[C@H](NC(=O)c1cc(C(F)(F)F)cc(C(F)(F)F)c1)c1ncnn1-c1ccc(C(=O)NC2CCSCC2)cn1 | % | 100 |
| C[C@H](NC(=O)c1cc(C(F)(F)F)cc(C(F)(F)F)c1)c1ncnn1-c1ccc(C(=O)N2CC3(COC3)C2)cn1 | % | 100 |
| C[C@H](NC(=O)c1cc(C(F)(F)F)cc(C(F)(F)F)c1)c1ncnn1-c1ccc(C(=O)NC2CS(=O)(=O)C2)cn1 | % | 90 |

Here's the next entry for you.
Recorded pest or weed control at 1 µg/cm2, 100 g/ha for Cc1nc([C@H](C)NC(=O)c2cc(C(F)(F)F)cc(C(F)(F)F)c2)n(-c2ccc(C(=O)N3CCC(C)CC3)cn2)n1 , please?
90

Just for reference, patent US20230058623A1 is where these values come from.
